TGT: T1, human Gro-alpha (human, UniProt P09341 35-107)
T1 sequence (looked up): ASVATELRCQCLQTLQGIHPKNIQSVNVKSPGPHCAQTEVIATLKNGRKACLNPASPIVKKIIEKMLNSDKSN
ASSAY TEXT: cell-based or functional assay
FLIPR IC50 overview

[
  {
    "BINDER": "17D1.1D2 (antibody, IgG2c, V domains shown) VH: EVQLQQSGPELVKPGASVKISCKASGYTFTDYYMNWLRQSHGKSLEWIGDINPNNGGTNYNQKFKNKATLTVDKSSSTAYMELRSLTSEDSAVFYCAGLGRIFDYWGQGTTLTVSS VL: ENVLTQSPAIMSAFPGEKVTMTCRASSSVSSTYLHWYQQKSGASPKLWIYSTSDLASGVPARFSGSGSGTSYSLTISSVEAEDAATYYCQQFSGYPWTFGGGTKLEIK",
    "FLIPR IC50": "> 146 µg/mL"
  },
  {
    "BINDER": "1L132.23 (antibody, IgG1, V domains shown) VH: QVQLQQPGAELVKPGASVKVSCKASGYTFTNYWMHWVRQRPGQGLEWIGRIHPSDNDTNYNQKFKDKATLTVDKSSNTAYMQLSSLTSEDSAVYYCAIGVYDGFIGLWGQGTSVTVSS VL: DIQMTQSPASQSASLGESVTITCLASQTIGTWLAWYQQKPGKSPQLLIYAATRLADGVPSRFSGSGSGTKFSFKISSLQAEDFVSYYCQQLSSTPWTFGGGTKLEIK",
    "FLIPR IC50": "> 67 µg/mL"
  },
  {
    "BINDER": "7A12.1F10 (antibody, IgG1, V domains shown) VH: QVQLQQSGAELVKPGASVKLSCKASGYIFTSNDINWVRQRPEQGLEWIGWIFPGDNSTKFNEKFRDKATLTTDKSSSTAYMQLSGLTSEDSAVYFCATFYGSTYGYYFDYWGQGTTLTVSS VL: DIVMTQSHKFMSTSVGDRVSITCKASQDVGTAVAWYQQKPGQSPKLLIYWTDTRHTGVPDRFTGSGSGTDFTLTISNVESEDCVDYFCHQYNNYPLTFGAGTKLELK",
    "FLIPR IC50": "9.9 µg/mL"
  }
]
